Target: human LPA1 (Homo sapiens, UniProt Q92633)
Construct: expressed in transfected cells; host or cells: CHO-K1
Sequence (Q92633 whole entry): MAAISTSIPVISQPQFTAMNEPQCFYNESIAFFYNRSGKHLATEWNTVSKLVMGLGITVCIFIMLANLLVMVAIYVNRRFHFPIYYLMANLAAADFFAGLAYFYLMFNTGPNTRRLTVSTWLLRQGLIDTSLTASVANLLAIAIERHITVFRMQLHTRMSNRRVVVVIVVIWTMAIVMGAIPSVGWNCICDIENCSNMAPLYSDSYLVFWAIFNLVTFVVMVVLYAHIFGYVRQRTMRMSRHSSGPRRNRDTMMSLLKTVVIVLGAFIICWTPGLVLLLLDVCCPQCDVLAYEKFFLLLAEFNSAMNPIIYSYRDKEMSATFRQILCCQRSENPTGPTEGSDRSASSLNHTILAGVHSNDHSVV
Assay: In vitro LPA1 calcium flux antagonist assay, Bioduro protocol
Format: cell-based
Conditions: CHO-K1 cells overexpressing human LPA1 and G15a; LPA challenge at EC80; calcium mobilization on FLIPR Tetra; read-out: IC50 (nM) in Assay B2
endpoint.name: IC50

Value of IC50 reported for the compound COc1cc([C@@H](O)[C@H](Cn2cc3nccc(C(=O)O)c3n2)OC2Cc3ccccc3C2)cc(OC)c1C [Compound 185] is 15 nM

Form field IC50, entry COc1cc([C@@H](O)[C@H](Cn2cc3nccc(C(=O)O)c3n2)OCC(C)C)cc(OC)c1C [Compound 211] : 459 nM

Field IC50 (entry COc1cc([C@@H](O)[C@H](Cn2cc3nccc(C(=O)O)c3n2)OC2CCCC2)c(C)cc1C [Compound 188] ) reads 447 nM

// IC50 value for COc1cc([C@@H](O)[C@H](Cc2nc([C@H](C)C(=O)O)c(C)s2)OC2CCCC2)cc(OC)c1C (single isomer, unassigned) [Compound 239] : 37.4 nM
